Every entry's value here was drawn from paper PMC6405842.

Target: GPR139 (Homo sapiens, UniProt Q6DWJ6)
Construct: host or cells: CHO-k1
Sequence (Q6DWJ6 1-353): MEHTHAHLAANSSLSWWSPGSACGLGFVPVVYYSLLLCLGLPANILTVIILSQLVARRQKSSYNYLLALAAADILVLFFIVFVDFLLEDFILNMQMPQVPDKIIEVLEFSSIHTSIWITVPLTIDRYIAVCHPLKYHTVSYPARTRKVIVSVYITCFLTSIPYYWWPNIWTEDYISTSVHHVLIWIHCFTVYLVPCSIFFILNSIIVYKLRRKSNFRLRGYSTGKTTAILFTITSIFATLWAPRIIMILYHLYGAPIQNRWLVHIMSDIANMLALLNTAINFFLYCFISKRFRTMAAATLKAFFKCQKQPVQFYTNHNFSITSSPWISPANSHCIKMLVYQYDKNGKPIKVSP
Assay: Phospho-ERK1/2 HTRF assay in CHO-GPR139 cells
Format: cell-based
Settings: ERK phosphorylation; expressed relative to FBS positive control
measurement.label: Emax (%)
Numbers only here, please. The scale is %.

N[C@@H](Cc1c[nH]c2ccccc12)C(=O)O [L-tryptophan, reference compound] | 70.6

Query block: I'd like to know its Emax. The molecule in question is COc1cc(OC)cc(C(=O)NNC(=O)Nc2cccc3ccccc23)c1 [1a, reference compound]
Result block: 81.5

Query block: Need Emax, item C[C@H](NC(=O)CNC(=O)c1cccc(Cl)c1)c1ccccc1 [7c, reference compound]
Result block: 89.1
